- target: human Nav1.1 (Homo sapiens, UniProt P35498)
- Construct: host or cells: HEK293
- assay: Amplification of Nav1.1-derived voltage-gated sodium current (Nav1.1 current), automated patch clamp (Test 1)
- Type: cell-based
- study_conditions: Concentration for evaluation 1 μM; HEK293 cell line stably expressing human Nav1.1
List of Nav1.1 current amplification rate (%) values.
Field format: number, assumed %, no unit text.

# compound, Nav1.1 current amplification rate (%)
measured = [
    ("CN1CC(c2cccc3c2CCN3C(=O)Cn2ncc3ncc(N(C)C4CCC4)nc32)C1", 18),
    ("CN1CCN(c2cccc3c2CCN3C(=O)Cn2ncc3ncc(N(C)C4CCC4)nc32)CC1", 21),
    ("CC1CC=C(c2ccc(=O)n(CC(=O)Nc3ccn4nncc4c3)n2)CC1 (centres unmarked)", 109),
    ("CC1CC=C(c2ccc(=O)n(CC(=O)N3CCc4c(CNC5CCOC5)cccc43)n2)CC1 (centres unmarked)", 81),
    ("CC1CC=C(c2ccc(=O)n(CC(=O)N3CCc4c(N5CCOCC5)cccc43)n2)CC1 (centres unmarked)", 393),
    ("CN(c1cnc2cnn(CC(=O)N3CCc4c(C5CN(C(=O)CO)C5)cccc43)c2n1)C1CCC1", 306),
    ("CC1CC=C(c2ccc(=O)n(CC(=O)Nc3cnc4nccn4c3)n2)CC1 (centres unmarked)", 52),
    ("CN(c1cnc2cnn(CC(=O)Nc3ccn4ncnc4c3)c2n1)C1CC1(C)C (centres unmarked)", 49),
    ("CN(c1cnc2cnn(CC(=O)Nc3ccc4ncnn4c3)c2n1)C1CC2(CC2)C1", 64),
    ("CC(=O)N1CC=C(c2nccc3c2CCN3C(=O)Cn2nc(C3=CCC(C)CC3)ccc2=O)C1 (centres unmarked)", 87),
]

Okay, next one:
GET /values?readout=Nav1.1 current amplification rate (%)&item= `CN(CC1(C)CC1)c1cnc2cnn(CC(=O)Nc3ccc4ncnn4c3)c2n1`
45
